Target: human ANO6 (Homo sapiens, UniProt Q4KMQ2)
Construct: expressed in transfected cells
Sequence (Q4KMQ2 1-931 isoform Q4KMQ2-2): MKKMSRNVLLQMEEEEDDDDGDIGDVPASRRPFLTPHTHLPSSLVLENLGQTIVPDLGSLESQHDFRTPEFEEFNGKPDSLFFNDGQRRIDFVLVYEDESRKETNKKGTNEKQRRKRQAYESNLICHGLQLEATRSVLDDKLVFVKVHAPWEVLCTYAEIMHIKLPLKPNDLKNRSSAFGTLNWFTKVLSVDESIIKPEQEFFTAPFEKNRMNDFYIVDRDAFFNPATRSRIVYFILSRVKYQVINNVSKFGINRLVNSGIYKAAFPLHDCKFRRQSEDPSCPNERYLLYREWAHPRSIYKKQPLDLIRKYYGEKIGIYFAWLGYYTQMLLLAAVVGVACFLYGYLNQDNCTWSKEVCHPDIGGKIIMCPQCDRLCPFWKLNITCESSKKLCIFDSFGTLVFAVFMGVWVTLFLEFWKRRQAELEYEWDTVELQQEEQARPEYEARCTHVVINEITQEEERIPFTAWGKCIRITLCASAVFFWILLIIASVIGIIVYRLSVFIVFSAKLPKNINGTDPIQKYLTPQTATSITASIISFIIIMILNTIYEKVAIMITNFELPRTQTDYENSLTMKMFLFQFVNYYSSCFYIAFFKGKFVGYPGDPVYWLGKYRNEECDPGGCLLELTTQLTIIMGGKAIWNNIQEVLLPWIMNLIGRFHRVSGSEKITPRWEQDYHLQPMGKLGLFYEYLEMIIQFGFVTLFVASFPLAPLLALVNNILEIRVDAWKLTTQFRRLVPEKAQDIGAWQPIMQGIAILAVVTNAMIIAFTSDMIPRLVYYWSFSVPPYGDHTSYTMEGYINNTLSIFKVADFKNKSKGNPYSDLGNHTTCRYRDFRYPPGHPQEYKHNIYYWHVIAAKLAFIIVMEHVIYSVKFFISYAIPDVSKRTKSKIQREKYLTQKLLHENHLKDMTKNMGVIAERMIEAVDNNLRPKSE
Assay: YFP quenching assay (ANO6 ion channel activity)
Format: cell-based
Settings: test compound 1 μM, 10 μM ionomycin, read-out: Inhibition Level 1 μM
Description: Example 3: YFP Quenching Assay 1. Materials and Instruments Ionomycin (Alomonelab cat. #I-700), FLUOstar Omega microplate reader (BMG Labtech, Ortenberg, Germany), and MARS Data Analysis Software (BMG Labtech) […] (1) YFP fluorescence signals were recorded in every 0.4 seconds. (2) Basal YFP fluorescence signals were recorded for 1 second. (3) 140 mM SCN-(50 μL) containing 10 μM ionomycin was injected to each well, and YFP fluorescence signals were recorded. […]
// reported inhibition at 1 µM for each item listed

| molecule | experimental-system | value-observed |
| --- | --- | --- |
| O=C(NCc1ccccn1)c1cccc(Nc2ccc(-c3ccccc3)nn2)c1 | human ANO6 (Homo sapiens, UniProt Q4KMQ2) | < 30% |
| COc1cccc(C(C)NC(=O)c2cccc(Nc3ccc(-c4ccccc4)nn3)c2)c1 (stereo not shown) | human ANO6 (Homo sapiens, UniProt Q4KMQ2) | 30 to 60% |
| Cc1ccc(CNC(=O)c2cccc(Nc3ccc(C(C)C)nn3)c2)o1 | human ANO6 (Homo sapiens, UniProt Q4KMQ2) | 30 to 60% |
| O=C(NC1COC1)c1cccc(Nc2ccc(-c3ccccc3)nn2)c1 | human ANO6 (Homo sapiens, UniProt Q4KMQ2) | 30 to 60% |
| O=C(NCCc1ccccc1)c1cccc(Nc2ncc(-c3ccccc3)cn2)c1 | human ANO6 (Homo sapiens, UniProt Q4KMQ2) | ≥ 60% |

Okay, next one:
Given the molecule Cc1ccc(-c2ccc(Nc3cccc(C(=O)NC(C)C)c3)nn2)cc1 , what is its reported inhibition at 1 µM? 30 to 60%
